test system: HEK293; assay: HEK293 cell IC50; format: cell-based; details: Homo sapiens
Task for the reader: assign each of the following molecules its reported log10(IC50).
Scale type: logarithmic (base 10). Underlying IC50 unit: nM.

Example cases with answers are listed next.
smiles-str	log10(IC50)
COc1cc(Nc2nc(Nc3ccc(N4CCN(C)CC4)cc3)ncc2Cl)cc(OC)c1OC	3.30
COc1cc(Nc2nc(Nc3ccc(N4CCN(C)CC4)cc3)nc(C)c2C)ccc1Cl	2.92
COc1cc(Nc2nc(Nc3ccc(N4CCN(C)CC4)cc3)ncc2C)ccc1Cl	2.58

// each molecule listed below needs its log10(IC50)
1. CN1CCN(c2ccc(Nc3ncc(Cl)c(Nc4cccc(S(=O)(=O)NC(C)(C)CO)c4)n3)cc2)CC1
2. COc1cc(Nc2nc(Nc3ccc(N4CCN(C)CC4)cc3)nc3ccccc23)ccc1Cl
3. Cc1nc(Nc2ccc(N3CCN(C)CC3)cc2)nc(Nc2cccc(S(=O)(=O)NC(C)(C)C)c2)c1C
4. Cc1nc(Nc2ccc(N3CCN(C)CC3)cc2)nc(Nc2cccc(S(=O)(=O)NC(C)(C)CO)c2)c1C

Output line:
1. 3.18
2. 3.23
3. 5.08
4. 3.63

// each molecule listed below needs its log10(IC50)
1. CN1CCN(c2ccc(Nc3ncc(Cl)c(Nc4cccc(NS(=O)(=O)C5CC5)c4)n3)cc2)CC1
2. Cc1cnc(Nc2ccc(N3CCN(C)CC3)cc2)nc1Nc1cccc(NS(=O)(=O)C2CC2)c1

Output line:
[3.56, 3.00]

###

test system: HEK293; test: HEK293 cell IC50; format: cell-based; settings: Homo sapiens
measured-metric: IC50 (µM)
Answers are plain numbers, in µM.

Example cases with answers are listed next.
smiles-str	system-name	result-value
Cc1cnc(Nc2ccc(N3CCN(C)CC3)cc2)nc1Nc1cccc(S(=O)(=O)NC2CC2)c1	HEK293	1.2
COc1cc(Nc2nc(Nc3ccc(N4CCN(C)CC4)cc3)nc(C)c2C)cc(OC)c1OC	HEK293	1.4
COc1cc(Nc2nc(Nc3ccc(N4CCN(C)CC4)cc3)ncc2Cl)ccc1Cl	HEK293	1.4

// each compound listed below needs its IC50
1. Cc1cnc(Nc2ccc(N3CCN(C)CC3)cc2)nc1Nc1cccc(NS(=O)(=O)C(C)(C)C)c1
2. Cc1cnc(Nc2ccc(N3CCN(C)CC3)cc2)nc1Nc1cccc(S(=O)(=O)NC(C)(C)CO)c1
3. CN1CCN(c2ccc(Nc3ncc(Cl)c(Nc4cccc(S(=O)(=O)NC5CC5)c4)n3)cc2)CC1
4. COc1cc(Nc2nc(Nc3ccc(N4CCN(C)CC4)cc3)ncc2C)cc(OC)c1OC

Output line:
[1.2, 3.6, 1.8, 0.97]

###

target: BRD4-1 (Homo sapiens, UniProt O60885)
measured-metric: IC50 (nM)
Give bare numbers, in nM.

Input line: Note IC50 for the molecule shown: Cc1cnc(Nc2ccc(N3CCN(C)CC3)c(F)c2)nc1Nc1cccc(NS(=O)(=O)C(C)(C)C)c1
Output line: 24.3

###

Task for the reader: assign each of the following compounds its reported ΔTm at 4 µM.
target: BRD4 (Homo sapiens); assay: Differential Scanning Fluorimetry (DSF), stability of BRD4 upon ligand binding; conditions: 100 μM protein, 4 μM compound and 2% DMSO
Answers are plain numbers, in °C.

Example cases with answers are listed next.
compound	system-name	unit-label	ΔTm at 4 µM
Cc1cnc(Nc2ccc(N3CCN(C)CC3)cc2)nc1Nc1cccc(NS(C)(=O)=O)c1	BRD4 (Homo sapiens)	°C	4.6
Cc1cnc(Nc2ccc(N3CCN(C)CC3)cc2)nc1Nc1cccc(S(=O)(=O)NC(C)(C)C)c1 [drawing 27]	BRD4 (Homo sapiens)	°C	6.83
CN1CCN(C(=O)Cc2ccc(Nc3ncc(F)c(Nc4ccc(C(=O)NC5CC5)cc4)n3)cc2)CC1	BRD4 (Homo sapiens)	°C	4.2
CCOc1cc(Nc2nc(Nc3ccc(N4CCN(C)CC4)cc3)ncc2C)ccc1Cl	BRD4 (Homo sapiens)	°C	6.4
Cc1cnc(Nc2ccc(N3CCN(C)CC3)cc2)nc1Nc1cccc(NC(=O)NC(C)C)c1	BRD4 (Homo sapiens)	°C	2.1
CN1CCN(c2ccc(Nc3nc4c(c(Nc5ccc(Cl)c(NS(=O)(=O)C6CC6)c5)n3)COC4)cc2)CC1	BRD4 (Homo sapiens)	°C	5.4
CN1CCN(c2ccc(Nc3ncc(Cl)c(Nc4ccc5c(c4)OCO5)n3)cc2)CC1	BRD4 (Homo sapiens)	°C	0.073
CN1CCN(c2ccc(Nc3ncc(C(=O)O)c(Nc4cccc(S(=O)(=O)NC(C)(C)C)c4)n3)cc2)CC1	BRD4 (Homo sapiens)	°C	-0.2

Okay, next one:
Input line: Note ΔTm at 4 µM for the compound shown: Cc1cnc(Nc2ccc(N3CCN(C)CC3)cc2)nc1Nc1cccc(NS(=O)(=O)C(C)(C)C)c1
Output line: 8.54

###

biological target: BRD4 (Homo sapiens); assay: BRD4 IC50 (RB, commercial BRD panel); format: binding; conditions: read-out: BRD4 IC50
measured-metric: pIC50
Answers are plain numbers, as −log10 of the molar value.

Example cases with answers are listed next.
compound	pIC50
COc1cc(Nc2nc(Nc3ccc(N4CCN(C)CC4)cc3)ncc2C)ccc1Cl	6.21
Cc1cnc(Nc2ccc(N3CCN(C)CC3)cc2)nc1Nc1ccc(Cl)c(NS(=O)(=O)C(C)(C)C)c1 [drawing 109]	8.39

Input line: Look up and report measured pIC50 (BRD4 (Homo sapiens)) for the following compound: Cc1cnc(Nc2ccc(N3CCN(C)CC3)cc2)nc1Nc1cccc(NS(=O)(=O)C(C)(C)C)c1
Output line: 7.99

###

Task for the reader: assign each of the following compounds its reported ΔTm at 4 µM.
target: BRD4 (Homo sapiens); assay: Differential Scanning Fluorimetry (DSF), stability of BRD4 upon ligand binding; conditions: 100 μM protein, 4 μM compound and 2% DMSO
Numbers only, in °C.

Example cases with answers are listed next.
smiles-str	system-name	measured-metric	unit-label	result-value
Cc1cnc(Nc2ccc(N3CCN(C)CC3)c(Cl)c2)nc1Nc1ccc(Cl)c(NS(=O)(=O)C(C)(C)C)c1	BRD4 (Homo sapiens)	ΔTm at 4 µM	°C	9.54
COc1cc(C(=O)NC2CCN(C)CC2)ccc1Nc1ncc(C)c(Nc2cc(OC)c(Cl)c(OC)c2)n1	BRD4 (Homo sapiens)	ΔTm at 4 µM	°C	3
CN1CCN(c2ccc(Nc3ncc(Cl)c(Nc4ccc(Cl)c(NS(=O)(=O)C(C)(C)C)c4)n3)cc2F)CC1	BRD4 (Homo sapiens)	ΔTm at 4 µM	°C	5.22

Input line: Note ΔTm at 4 µM for the compound shown: CN1CCC(NC(=O)c2ccc(Nc3ncc(Cl)c(Nc4ccc(Cl)c(NS(=O)(=O)C(C)(C)C)c4)n3)cc2F)CC1
Output line: 12

###

molecular target: UniProt O60885; assay: Differential Scanning Fluorimetry (DSF), stability of BRD4 upon ligand binding; settings: estimated
measured-metric: log10 IC50 (log10 of the value in nM)
Scale type: logarithmic (base 10). Underlying IC50 unit: nM.

smiles-str	system-name	measured-metric	result-value
Cc1cnc(Nc2ccc(N3CCN(C)CC3)cc2)nc1Nc1ccc2c(c1)N(S(=O)(=O)C(C)(C)C)CC2	UniProt O60885	log10 IC50	1.59
CN1CCN(c2ccc(Nc3ncc(Cl)c(Nc4cccc(S(=O)(=O)NC(C)(C)CO)c4)n3)cc2)CC1	UniProt O60885	log10 IC50	2.30
CCOc1cccc(Nc2nc(Nc3ccc(N4CCN(C)CC4)cc3)ncc2C)c1	UniProt O60885	log10 IC50	2.53
CN1CCN(c2ccc(Nc3nc4c(c(Nc5cccc(S(=O)(=O)NC6CC6)c5)n3)CCC4)cc2)CC1	UniProt O60885	log10 IC50	2.72
CCc1cnc(Nc2ccc(N3CCN(C)CC3)cc2)nc1Nc1ccc(Cl)c(OC)c1	UniProt O60885	log10 IC50	3.90
Cc1cnc(Nc2ccc(N3CCN(C)CC3)cc2)nc1Nc1ccc2c(c1)OCCO2	UniProt O60885	log10 IC50	2.87
CN1CCN(c2ccc(Nc3ncc(C(N)=O)c(Nc4cccc(NS(=O)(=O)C5CC5)c4)n3)cc2)CC1	UniProt O60885	log10 IC50	3.58
COc1cc(Nc2nc(Nc3ccc(N4CCN(C)CC4)cc3)ncc2Cl)c(OC)cc1Cl	UniProt O60885	log10 IC50	4.31
CN1CCN(c2ccc(Nc3ncc(F)c(Nc4ccc(Cl)c(NS(=O)(=O)C(C)(C)C)c4)n3)cc2F)CC1	UniProt O60885	log10 IC50	4.23
CN1CCN(c2ccc(Nc3ncc(C(F)(F)F)c(Nc4cccc(S(=O)(=O)NC(C)(C)C)c4)n3)cc2)CC1	UniProt O60885	log10 IC50	4.27

// each molecule listed below needs its log10 IC50
1. COc1cc(Nc2nc(Nc3ccc(N4CCN(C)CC4)cc3)nc(C)c2C)cc(OC)c1OC
2. Cc1cnc(Nc2ccc(N3CCN(C)CC3)cc2)nc1Nc1ccc(Cl)c(NS(=O)(=O)C2CC2)c1

Output line:
1. 2.36
2. 2.00
